Source listed as ChEMBL document CHEMBL4342427.

Test system: HFF
ASSAY_NAME: Cytotoxicity against human HFF cells assessed as cell growth inhibition
Format: cell-based
pIC50: −log10 of the molar value.
VALUE_TYPE: pIC50

Example results:
# COMPOUND_STRUCTURE_STRING, VALUE_TYPE, REPORTED_RESULT
rows = [
    ("O=C(Nc1cccnc1)c1ccc(CNS(=O)(=O)c2ccc(N3CCOCC3)cc2)cc1", "pIC50", 5.70),
    ("CN1CCN(c2ccc(S(=O)(=O)NCc3ccc(C(=O)Nc4cccnc4)cc3)cc2)CC1", "pIC50", "< 4.30"),
]

Attention now turns to another entry.
Param item = `CN1CCN(c2ccc(S(=O)(=O)NCc3ccc(-c4nc(-c5cccnc5)no4)cc3)cc2)CC1` ; retrieve measured pIC50.
< 4.30

----------
Listed compounds paired with reported IC50
SYSTEM_TESTED: Sterol 14-alpha demethylase (Trypanosoma cruzi (strain CL Brener), UniProt Q7Z1V1)
Sequence (Q7Z1V1 whole entry): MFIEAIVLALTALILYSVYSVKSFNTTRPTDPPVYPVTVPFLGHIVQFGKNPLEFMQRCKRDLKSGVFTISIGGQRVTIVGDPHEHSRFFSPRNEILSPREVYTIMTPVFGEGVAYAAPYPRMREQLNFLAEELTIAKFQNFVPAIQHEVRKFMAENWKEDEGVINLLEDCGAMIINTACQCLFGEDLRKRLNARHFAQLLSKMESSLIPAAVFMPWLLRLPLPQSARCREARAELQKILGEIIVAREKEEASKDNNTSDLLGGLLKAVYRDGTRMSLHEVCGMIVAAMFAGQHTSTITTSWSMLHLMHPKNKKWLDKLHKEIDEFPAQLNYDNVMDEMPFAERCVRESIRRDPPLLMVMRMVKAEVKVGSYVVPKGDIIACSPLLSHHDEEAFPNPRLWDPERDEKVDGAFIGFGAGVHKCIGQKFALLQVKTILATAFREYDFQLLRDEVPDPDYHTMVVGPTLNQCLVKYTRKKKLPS
ASSAY_NAME: Inhibition of Trypanosoma cruzi Tulahuen C4 CYP51 expressed in Escherichia coli HMS174 using [3H]-sterol as substrate in presence of NADPH by reversed phase HPLC analysis
Provide the reading as a plain figure in µM.

# COMPOUND_STRUCTURE_STRING, IC50 (µM)
data = [
    ("CN1CCN(c2ccc(S(=O)(=O)NCc3ccc(C(=O)Nc4cccnc4)cc3)cc2)CC1", 49),
]

Sample `Cc1ncccc1NC(=O)c1ccc(CNS(=O)(=O)c2ccc(N3CCN(C)CC3)cc2)cc1` — what was its IC50?
487

----------
ASSAY_NAME: Intrinsic clearance in human liver microsomes assessed per mg protein measured up to 60 mins in presence of NADPH
Type: ADME, Microsome
CONDITION_NOTES: microsomes, 1 h
VALUE_TYPE: CLint (µL/min/mg)
Field: numeric (µL/min/mg). Do not append units.

GET /values?readout=CLint&item= `CN1CCN(c2ccc(S(=O)(=O)NCc3ccc(-c4nc(-c5cccnc5)no4)cc3)cc2)CC1`
535

----------
ASSAY_NAME: Kinetic solubility in phosphate buffer at pH 6.5 by nephelometry
CONDITION_NOTES: read-out: Kinetic_solubility
This section presents molecules with their documented solubility kinetic values.

# COMPOUND_STRUCTURE_STRING, solubility kinetic
rows = [
    ("O=C(Nc1cccnc1)c1ccc(CNS(=O)(=O)c2ccc(N3CCOCC3)cc2)cc1", "12.5 to 25 µg/mL"),
    ("CN1CCN(c2ccc(S(=O)(=O)NCc3ccc(-c4nc(-c5cccnc5)no4)cc3)cc2)CC1", "25 to 50 µg/mL"),
]

Find the recorded solubility kinetic belonging to `CN1CCN(c2ccc(S(=O)(=O)NCc3ccc(C(=O)Nc4cccnc4)cc3)cc2)CC1` and report it.
25 to 50 µg/mL

----------
ASSAY_NAME: Intrinsic clearance in human liver microsomes assessed per mg protein measured up to 60 mins in presence of NADPH
Format: ADME, Microsome
CONDITION_NOTES: liver microsomes
The entries below come with measured microsomal CLint values attached.
Provide the reading as a plain figure in µL/min/mg.

# COMPOUND_STRUCTURE_STRING, microsomal CLint / µL/min/mg
records = [
    ("O=C(Nc1cccnc1)c1ccc(CNS(=O)(=O)c2ccc(N3CCOCC3)cc2)cc1", 69),
]

Fill blank: measured microsomal CLint of the molecule `CN1CCN(c2ccc(S(=O)(=O)NCc3ccc(C(=O)Nc4cccnc4)cc3)cc2)CC1` is ____.
45
